The entries below come with measured Kd values attached.
# experimentalSystem: Ape1WT (Homo sapiens, UniProt P27695 1-318)
# Sequence (P27695 whole entry): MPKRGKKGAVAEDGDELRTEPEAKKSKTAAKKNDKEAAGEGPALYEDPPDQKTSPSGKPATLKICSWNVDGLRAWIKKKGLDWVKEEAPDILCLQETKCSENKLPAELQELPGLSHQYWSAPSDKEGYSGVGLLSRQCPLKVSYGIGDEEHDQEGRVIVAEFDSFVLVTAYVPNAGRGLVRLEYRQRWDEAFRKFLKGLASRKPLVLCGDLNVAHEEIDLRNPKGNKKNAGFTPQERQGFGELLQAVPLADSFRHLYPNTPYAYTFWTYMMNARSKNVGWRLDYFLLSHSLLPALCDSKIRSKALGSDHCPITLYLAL
# assaySummary: SPR

Problem: Bench note: what Kd did TTTTTTTTTTTTTTTTTTTTTTT (ssDNA) [Biot-Poly dT] show?
Result: 170 nM

Now look at this one.
Problem: Bench note: what Kd did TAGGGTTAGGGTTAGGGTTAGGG (structured_DNA) [Biot-Nat] show?
Result: 31.6 nM
